Tested on: SW-620 colon
Test: NCI tumour cell line growth inhibition, 48 h
Please respond with reported TGI for every item in the list.

For "O=C1N[C@@H]2CCC[C@@H]2[C@@H]1c1ccc(Cl)cc1" , write its TGI.
> 100 µM

For "O=C1/C(=C/c2ccc(Cl)cc2)CCCc2ccc(F)cc21" , write its TGI.
31.6 µM

For "CC1(C)OC[C@@H](C[C@H](O)COCc2ccccc2)O1" , write its TGI.
> 100 µM

For "O=C(/C=C\Nc1ccccc1O)C(F)(F)F" , write its TGI.
> 100 µM

For "CN(C)CCCNc1cc(O)c2c(c1O)C(=O)c1ccccc1C2=O" , write its TGI.
21.7 µM

For Cn1c2c(c3ccccc31)CCN1C(=O)C34CCCC3CC21S4 (centres undefined) , write its TGI.
> 100 µM

For "N#CC(C#N)SCc1ccccc1" , write its TGI.
> 100 µM

For "COc1cc(-c2csc(NC(=O)c3cc(C(F)(F)F)cc(C(F)(F)F)c3)n2)cc(OC)c1OC" , write its TGI.
> 100 µM

For "Cc1cc(OCc2nnc3sc(NC(=O)c4ccccc4)nn23)ccc1Cl" , write its TGI.
> 100 µM

For "CCN(CCCCCCCCCCN1CC(=O)N(CCCCCCCCCCN(CC)Cc2ccccc2OC)CC1=O)Cc1ccccc1OC" , write its TGI.
3.95 µM

For CC1(C)C(=O)C(O)=CC2C1=CCC1C2(C)C(=O)CC2(C)C(C(C)(O)C(=O)CC(O)C(C)(C)O)C(O)CC12C (centres undefined) , write its TGI.
> 50.7 µM

For "CC1(C)N=C(N)N=C(N)N1c1cccc(OCc2cccc(N)c2)c1" , write its TGI.
> 100 µM

For COc1ccc(C(C2=C(C)C(=O)c3ccccc3C2=O)c2ccc(C(C)C)cc(=O)c2O)cc1 (centres undefined) , write its TGI.
> 100 µM

For "CC[C@H](C)[C@H](NC(=O)c1cnccn1)C(=O)N(C)[C@H](C[C@@H](OC(C)=O)c1nc(C(=O)N[C@@H](Cc2ccccc2)C[C@H](C)C(=O)OC)cs1)C(C)C" , write its TGI.
> 33.3 µM

###

Tested on: SW-620 colon
Test: NCI tumour cell line growth inhibition, 48 h
Peptide text beside a SMILES is read from it. * marks the point of attachment. X26 = Clc1c(Cl)c(Cl)c(O*)c(Cl)c1Cl; Boc = CC(C)(C)OC(=O)*; OBn = c1ccc(CO*)cc1; Bn = c1ccc(C*)cc1
Please respond with reported TGI for every item in the list.

For "Cc1nc2c(n1CC(C)(C)C)C(=O)c1ccccc1C2=O" , write its TGI.
> 100 µM

For "Cc1cc(N(CCNc2ccnc3cc(Cl)ccc23)Cc2ccc3c(c2)OCO3)nc(N2CCN(C)CC2)n1" , write its TGI.
5.41 µM

For "O=c1oc2ccccc2c(O)c1C=NC(=S)c1ccncc1" , write its TGI.
> 100 µM

For COC1/C=C/OC2(C)Oc3c(C)c(O)c4c(c3C2=O)C(=O)C=C(NC(=O)/C(C)=C\C=C\C(C)C(OC=O)C(C)C(O)C(C)C(OC(C)=O)C1C)C4=O (configuration not stated) , write its TGI.
14 µM

For "COc1ccc(Cl)cc1Nc1nc(C(F)(F)F)ccc1C(=O)NN" , write its TGI.
> 100 µM

For "Nc1nncc2[nH]cnc12" , write its TGI.
> 100 µM

For "CCN(CC)c1ccc(NC(=S)NN(C)C)cc1" , write its TGI.
> 10 µM

For CC[N+]1(C)CCC(O)(c2ccc(C)cc2)C(C(=O)c2ccc(C)cc2)C1 (configuration not stated) , write its TGI.
39.3 µM

For CC(C)CC(NC(=O)C(CCC(=O)OCc1ccccc1)NC(=O)OC(C)(C)C)C(=O)NC(COCc1ccccc1)C(=O)NC(Cc1ccccc1)C(=O)Oc1c(Cl)c(Cl)c(Cl)c(Cl)c1Cl (configuration not stated) (Boc-E(OBn)LS(Bn)F-X26; configuration not given here) , write its TGI.
> 100 µM

For CC1CCc2sc3nc4n(c(=O)c3c2C1)CC(C)S4 (configuration not stated) , write its TGI.
> 100 µM

For "Nc1nc2c(ncn2Cc2ccccc2CCO)c(=O)[nH]1" , write its TGI.
> 100 µM

For O=C(CC(C(=O)c1cccs1)c1ccc2c(c1)OCO2)c1ccc(Br)cc1 (configuration not stated) , write its TGI.
> 100 µM

For CC(C)N(C(C)C)[PH+]1O[PH+](N(C(C)C)C(C)C)O[PH+](N(C(C)C)C(C)C)O[PH+](N(C(C)C)C(C)C)O[PH+](N(C(C)C)C(C)C)O1.[C-]#[O+].[C-]#[O+].[C-]#[O+].[C-]#[O+].[C-]#[O+].[C-]#[O+].[C-]#[O+].[Cr].[Cr] (configuration not stated) , write its TGI.
> 100 µM

For "C=C1C(=O)O[C@@H]2C[C@@]3(C)CC(=O)C=C(C)[C@@H]3C[C@H]12" , write its TGI.
22.6 µM

For "Cc1cc2c(C(C)C)c(O)c(O)c(C=Nc3cc(C(F)(F)F)ccc3Cl)c2c(O)c1-c1c(C)cc2c(C(C)C)c(O)c(O)c(C=Nc3cc(C(F)(F)F)ccc3Cl)c2c1O" , write its TGI.
> 100 µM

For "O=C(CCc1nc(=S)[nH][nH]1)NC12CC3CC(CC(C3)C1)C2" , write its TGI.
> 100 µM

For O=C1c2ccccc2N2OC3(N4CCCC4)CCCC3C12c1ccccc1 (configuration not stated) , write its TGI.
> 100 µM

###

Please respond with reported GI50 for every item in the list.
Test system: HCC-2998 colon
Test: NCI tumour cell line growth inhibition, 48 h

Specify GI50 for CCN(c1ccc(CO)c(Cl)c1)C(C)c1ccc(F)cc1 (stereo unspecified) , system HCC-2998 colon.
16.6 µM

Specify GI50 for "COc1cc(Nc2ccnc(N3CCN(c4ccnc5cc(Cl)ccc45)CC3)n2)cc(OC)c1" , system HCC-2998 colon.
2.8 µM

Specify GI50 for "COc1cc(-c2csc(NC(=O)c3cc(C(F)(F)F)cc(C(F)(F)F)c3)n2)cc(OC)c1OC" , system HCC-2998 colon.
3.2 µM

Specify GI50 for "COc1cc2cc(Oc3ccc(NC(=O)c4cccc(C(F)(F)F)c4)cc3)c(C)nc2cc1OC" , system HCC-2998 colon.
8.03 µM

Specify GI50 for "Cc1cc(N(CCNc2ccnc3cc(Cl)ccc23)Cc2ccc3c(c2)OCO3)nc(N2CCN(C)CC2)n1" , system HCC-2998 colon.
2.12 µM

Specify GI50 for "CCN(CCCCCCCCCCN1CC(=O)N(CCCCCCCCCCN(CC)Cc2ccccc2OC)CC1=O)Cc1ccccc1OC" , system HCC-2998 colon.
1.46 µM

###

System: RPMI-8226 leukemia
Assay: NCI tumour cell line growth inhibition, 48 h
Parameter threshold = 50 µM. Response is class 1 when TGI meets or exceeds it, else class 0.

Tell me whether TGI is at least 50 µM here: "O=C1CS/C(=N/N=C/c2cn(Cc3ccc(Cl)cc3Cl)c3ccccc23)N1"
class 1

Tell me whether TGI is at least 50 µM here: "Clc1ccccc1NN(Cc1ccccn1)c1ccccc1Cl"
class 1

Tell me whether TGI is at least 50 µM here: "COc1ccc2c(c1)-c1c(c3cc(OC)ccc3n1CCN(C)C)CC2"
class 0

Tell me whether TGI is at least 50 µM here: "Nc1cc(N)c2nc(-c3ccccc3)c(Oc3ccc(F)cc3)nc2c1"
class 0

Tell me whether TGI is at least 50 µM here: CC(O)CNC1=CC(=O)C(=O)c2ccccc21 (stereo not drawn)
class 0

Tell me whether TGI is at least 50 µM here: CCc1ccccc1NC(=O)C(=O)C(C(=O)c1ccc(OC)cc1)c1ccc(OC)cc1 (stereo not drawn)
class 1

Tell me whether TGI is at least 50 µM here: "O=C(OC12CC3CC(CC(C3)C1)C2)c1ccc(NCc2cc(O)ccc2O)cc1"
class 0

Tell me whether TGI is at least 50 µM here: "Oc1c(OCc2nnc(CCCCCCCCc3nnc(COc4ccc5ccccc5c4O)o3)o2)ccc2ccccc12"
class 1

Tell me whether TGI is at least 50 µM here: "COc1ccc2nc(-c3ccccc3)cc(Nc3cccc(/C(C)=N\O)c3)c2c1"
class 1

Tell me whether TGI is at least 50 µM here: "CCc1nc(N)nc(N)c1-c1ccc([N+](=O)[O-])c(NCc2ccccc2)c1"
class 0

Tell me whether TGI is at least 50 µM here: "O=CN1CCN(C(=O)c2ccco2)C1=S"
class 0

Tell me whether TGI is at least 50 µM here: Cc1cn(CCCCCOC(=O)NC(CCCNC(N)=O)C(=O)O)c(=O)[nH]c1=O (stereo not drawn)
class 1

Tell me whether TGI is at least 50 µM here: "Cc1cc([N+](=O)[O-])c(C)c2c1[nH]c1ccc(/C(CCC3CCCC3)=N\N)cc12"
class 1

Tell me whether TGI is at least 50 µM here: "CNC(=S)NNc1ncnc2c1c(-c1ccc(Cl)cc1)cn2-c1ccc(C)cc1"
class 1

Tell me whether TGI is at least 50 µM here: "N#Cc1nc(CCCN2C(=O)c3ccccc3C2=O)oc1N"
class 1

Tell me whether TGI is at least 50 µM here: "S=C(N/N=C/c1cc(Cl)cc(Cl)c1)NC12CC3CC(CC(C3)C1)C2"
class 1

Tell me whether TGI is at least 50 µM here: "CCOC(=O)Cn1nnc2cc(Nc3c(C)[n+]([O-])c4cc(F)c(OCC)cc4[n+]3[O-])ccc21"
class 1

Tell me whether TGI is at least 50 µM here: "O=[N+]([O-])/C(Cl)=C(/C(Cl)=C(Cl)Cl)N1CCCCC1"
class 0

Tell me whether TGI is at least 50 µM here: "C=C1C[C@@H]2CC[C@@]34C[C@H]5O[C@H]6[C@@H](O3)[C@H]3O[C@H](CC[C@@H]3O[C@H]6[C@H]5O4)CC(=O)C[C@@H]3[C@@H](OC)[C@@H](C[C@H](O)CN)O[C@H]3C[C@H]3O[C@@H](CC[C@@H]1O2)C[C@@H](C)C3=C"
class 0

Tell me whether TGI is at least 50 µM here: "COC(=O)C1=C(C)NC(C)=C(C(=O)OC)C1c1cccc(N=O)c1"
class 1

Tell me whether TGI is at least 50 µM here: COC(=O)c1ccc2c(c1)C(NC(C)=O)CCc1cc(OC)c(OC)c(OC)c1-2 (stereo not drawn)
class 1

Tell me whether TGI is at least 50 µM here: Cn1c2c(c3ccccc31)CCN1C(=O)C34CCCC3CC21S4 (stereo not drawn)
class 1

Tell me whether TGI is at least 50 µM here: "Cc1nnc2n1-c1ccccc1N(Cc1ccccc1)CC2"
class 1

Tell me whether TGI is at least 50 µM here: C/C(=N/N(C=O)C[n+]1ccccc1)C(CN(CC(C)C)CC(C)C)C(=O)Nc1ccc(C)cc1C (stereo not drawn)
class 1

Tell me whether TGI is at least 50 µM here: "NS(=O)(=O)c1ccc(N2Cc3cc(Cl)ccc3OC3=C2C(=O)N(CC2CCCCC2)C3=O)cc1"
class 0

Tell me whether TGI is at least 50 µM here: O=P1(C(O)/C=C/c2ccccc2)N(Cc2ccccc2)[C@@H]2CCCC[C@H]2N1Cc1ccccc1 (stereo partly drawn)
class 0
